Test system: LOC_OS01G39600-cb002;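 further: purified Escherichia coli-expressed rice kinase domain construct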
Assay: thermal shift delta Tm vs DMSO control; higher = stronger stabilization (binding)
Details: 12.5 µM; protein concentration 2 µM
Label True for high-side thermal shift delta Tm (at or above 0.2 °C) and False for low-side thermal shift delta Tm (below it).

Worked set:
COMPOUND	ASSIGNED_CATEGORY
S=C(NCc1ccc2c(c1)OCO2)N1CCN(c2ncnc3c2oc2ccccc23)CC1	True
CO[C@H]1CC[C@H](N2C(=O)CNc3ncc(-c4ccc(C(C)(C)O)nc4)nc32)CC1	False
CNC(=O)c1cc(Oc2ccc(NC(=O)Nc3cc(C(C)(C)C)nn3-c3ccc4ncccc4c3)c(F)c2)ccn1	True
COc1cc2ncnc(Nc3ccc(Cl)cc3F)c2cc1OC	True
COc1cc2nccc(Oc3ccc(NC(=O)Nc4cc(C)on4)c(Cl)c3)c2cc1OC	False
COc1cc(N2CCC(N3CCN(C)CC3)CC2)ccc1Nc1ncnc(Nc2ccccc2S(=O)(=O)C(C)C)n1	True

Query: Does `O=C(/C=C/c1ccc2ccccc2n1)c1ccncc1` have a reported thermal shift delta Tm of at least 0.2 °C?
Result: False

Query: Textbook exercise: given the entry `C=CCc1ccc(O)c(-c2ccc(O)c(CC=C)c2)c1` , state whether its thermal shift delta Tm is greater than or equal to 0.2 °C.
Result: True

Query: Entry `Cc1cc(Nc2cc(CN3CCOCC3)c3nc(C)c(Cc4ccc(Cl)cc4F)n3n2)n[nH]1` : is its thermal shift delta Tm no less than 0.2 °C?
Result: True

Query: Reported thermal shift delta Tm reaches at least 0.2 °C for `COc1ccc(CNC(=O)Nc2ncc([N+](=O)[O-])s2)cc1` ?
Result: False

Query: Threshold query (thermal shift delta Tm >= 0.2 °C) on `Cc1ccc(-n2nc(C(C)(C)C)cc2NC(=O)Nc2ccc(OCCN3CCOCC3)c3ccccc23)cc1`
Result: False

Query: Does `Cc1nc(Nc2n[nH]c3c2CN(C(=O)N[C@H](CN(C)C)c2ccccc2)C3(C)C)c2sccc2n1` have a reported thermal shift delta Tm of at least 0.2 °C?
Result: True

Query: Answer whether thermal shift delta Tm of `CN1c2ccccc2C(=O)Nc2cnc(Nc3ccc(N4CCC(O)CC4)cc3)nc21` is greater than or equal to 0.2 °C.
Result: False

Query: Please tell me: is the compound `Cn1cnc(N)c2ncnc1-2` at or over 0.2 °C in terms of thermal shift delta Tm?
Result: True

Query: thermal shift delta Tm >= 0.2 °C for `Cc1cc(N2CCOCC2)cc2[nH]c(-c3c(NC[C@@H](O)c4cccc(Cl)c4)cc[nH]c3=O)nc12` ?
Result: True

Query: Tell me whether thermal shift delta Tm is at least 0.2 °C here: `CN1CCC(COc2cnc(-c3cccc(Cn4nc(-c5cccc(C#N)c5)ccc4=O)c3)nc2)CC1`
Result: True

Query: thermal shift delta Tm >= 0.2 °C for `Cn1cc(-c2ccc3nnc(Sc4ccc5ncccc5c4)n3n2)cn1` ?
Result: False

Query: Threshold query (thermal shift delta Tm >= 0.2 °C) on `COc1cc(OC)c(C=C2C(=O)Nc3ccccc32)c(OC)c1`
Result: False

Query: Please indicate if the recorded thermal shift delta Tm for `CN(C)Cc1cccc(N=C(c2ccccc2)c2c(O)[nH]c3cc(C(=O)N(C)C)ccc23)c1` meets or exceeds 0.2 °C.
Result: True

Query: Quick check: does `Oc1cc(O)cc(/C=C/c2ccc(O)c(O)c2)c1` have thermal shift delta Tm greater than or equal to 0.2 °C?
Result: True

Query: Dear colleague, could you confirm whether Cc1ccc(NC(=O)c2ccc(CN3CCN(C)CC3)cc2)cc1Nc1nccc(-c2cccnc2)n1 [Imatinib (STI571)] has thermal shift delta Tm at or above 0.2 °C?
Result: False

Query: Confirm if thermal shift delta Tm reported for the compound `Cc1c(CN2CCN(C(=O)[C@H](C)O)CC2)sc2c(N3CCOCC3)nc(-c3cnc(N)nc3)nc12` is 0.2 °C or above.
Result: False

Query: Form field: thermal shift delta Tm at least 0.2 °C? Entry: `O=C(NOCC1CC1)c1ccc(F)c(F)c1Nc1ccc(I)cc1Cl`
Result: True

Origin of the recorded values: the supplement of paper PMC9694430
